Taken from the supplement of paper PMC10567573.

Please go through the items and note down their protein stability index.
B1: ZNF193 (parent)
chain: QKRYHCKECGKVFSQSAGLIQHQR

- Variants of: B1
- assay: protein stability index of a GFP-peptide fusion (GPS, HEK-293T) (PSI 1-6); higher = more stable;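 note: lentivirally expressed fusions sorted by FACS into six bins by GFP to DsRed ratio, PSI derived from sequencing read proportions per bin multiplied by bin number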
- condition.details: c terminus: a fixed tail appended
Keep the answer to the number alone.

INPUT: I have this variant here, `S14P` , and I need its recorded protein stability index.
OUTPUT: 2.72

INPUT: I have this variant here, `S16W` , and I need its recorded protein stability index.
OUTPUT: 2.99

INPUT: I have this variant here, `Q23E` , and I need its recorded protein stability index.
OUTPUT: 2.55

INPUT: I have this variant here, `C9H` , and I need its recorded protein stability index.
OUTPUT: 3.13

INPUT: I have this variant here, `H22V` , and I need its recorded protein stability index.
OUTPUT: 1.33

INPUT: I have this variant here, `H5D` , and I need its recorded protein stability index.
OUTPUT: 2.37

INPUT: I have this variant here, `Q21T` , and I need its recorded protein stability index.
OUTPUT: 2.61

INPUT: I have this variant here, `V12L` , and I need its recorded protein stability index.
OUTPUT: 2.25

INPUT: I have this variant here, `Q1D` , and I need its recorded protein stability index.
OUTPUT: 3.71

INPUT: I have this variant here, `K11A` , and I need its recorded protein stability index.
OUTPUT: 3.19

INPUT: I have this variant here, `R3E` , and I need its recorded protein stability index.
OUTPUT: 3.26

INPUT: I have this variant here, `K11V` , and I need its recorded protein stability index.
OUTPUT: 2.18

INPUT: I have this variant here, `Y4M` , and I need its recorded protein stability index.
OUTPUT: 2.17

INPUT: I have this variant here, `V12M` , and I need its recorded protein stability index.
OUTPUT: 2.6

INPUT: I have this variant here, `Q21A` , and I need its recorded protein stability index.
OUTPUT: 3.2

INPUT: I have this variant here, `A17D` , and I need its recorded protein stability index.
OUTPUT: 3.42

INPUT: I have this variant here, `K11I` , and I need its recorded protein stability index.
OUTPUT: 2.32

INPUT: I have this variant here, `I20Q` , and I need its recorded protein stability index.
OUTPUT: 2.83

INPUT: I have this variant here, `H22W` , and I need its recorded protein stability index.
OUTPUT: 1.99

INPUT: I have this variant here, `K11S` , and I need its recorded protein stability index.
OUTPUT: 2.37

INPUT: I have this variant here, `C6H` , and I need its recorded protein stability index.
OUTPUT: 2.24

INPUT: I have this variant here, `Y4I` , and I need its recorded protein stability index.
OUTPUT: 2.4
